pIC50: −log10 of the molar value.
Recorded pIC50 for compounds tested on PYK2 (Homo sapiens (Human), UniProt Q14289), drawn from a number of studies.
Sequence (Q14289 whole entry): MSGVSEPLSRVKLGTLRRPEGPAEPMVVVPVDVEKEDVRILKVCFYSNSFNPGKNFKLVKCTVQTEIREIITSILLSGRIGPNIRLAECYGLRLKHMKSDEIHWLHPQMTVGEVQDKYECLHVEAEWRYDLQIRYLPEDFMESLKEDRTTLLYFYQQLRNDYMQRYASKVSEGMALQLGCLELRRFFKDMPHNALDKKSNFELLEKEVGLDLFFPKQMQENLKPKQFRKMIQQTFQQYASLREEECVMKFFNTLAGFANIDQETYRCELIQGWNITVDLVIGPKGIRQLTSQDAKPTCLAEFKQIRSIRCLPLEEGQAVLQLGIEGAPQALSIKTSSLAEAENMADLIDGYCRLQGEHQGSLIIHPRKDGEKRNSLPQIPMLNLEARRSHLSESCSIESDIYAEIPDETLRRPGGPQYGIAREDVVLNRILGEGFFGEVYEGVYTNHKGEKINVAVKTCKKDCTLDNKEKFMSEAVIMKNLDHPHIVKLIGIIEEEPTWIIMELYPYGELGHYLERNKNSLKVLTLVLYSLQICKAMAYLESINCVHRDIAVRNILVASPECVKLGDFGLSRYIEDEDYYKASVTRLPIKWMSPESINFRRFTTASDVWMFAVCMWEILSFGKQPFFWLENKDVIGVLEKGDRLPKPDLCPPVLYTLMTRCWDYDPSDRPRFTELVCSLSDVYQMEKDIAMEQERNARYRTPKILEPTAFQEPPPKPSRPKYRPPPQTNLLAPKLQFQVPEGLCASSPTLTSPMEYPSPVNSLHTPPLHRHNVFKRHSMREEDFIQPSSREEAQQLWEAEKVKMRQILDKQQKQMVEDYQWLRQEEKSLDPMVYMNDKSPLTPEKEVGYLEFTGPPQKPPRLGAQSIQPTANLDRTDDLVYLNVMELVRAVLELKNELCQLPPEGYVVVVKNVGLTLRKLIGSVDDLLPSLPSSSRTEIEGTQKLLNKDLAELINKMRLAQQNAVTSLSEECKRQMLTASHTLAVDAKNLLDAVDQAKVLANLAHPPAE
TEST READOUT: pIC50

INSERT INTO assay_data (compound, test_readout, recorded_result) VALUES
  ('COc1cc(N2CCOCC2)ccc1Nc1nc2c(c(Nc3ccccc3S(N)(=O)=O)n1)CCN2', 'pIC50', '> 6.70'),
  ('COc1cc(N2CCOCC2)ccc1Nc1nc2c(c(Nc3ccccc3C(=O)N3CCCC3)n1)C(C)CN2 (racemic)', 'pIC50', '> 6.30'),
  ('COc1cc(N2CCOCC2)ccc1Nc1nc2c(c(Nc3ccccc3S(=O)(=O)NC3CCCC3)n1)C(C)(C)CN2', 'pIC50', '> 6.30'),
  ('CCCC(=O)Nc1ccc(F)c(Cc2c[nH]c3ncc(Br)cc23)c1F', 'pIC50', '≥ 5.00'),
  ('COc1cc(-n2ncnn2)ccc1Nc1nc2c(c(Nc3ccccc3S(=O)(=O)NC(C)C)n1)CCN2', 'pIC50', '> 6.70'),
  ('CCOC(=O)c1c(C)[nH]c(/C=C2\C(=O)Nc3cccc(CCO)c32)c1CCCN1CCOCC1', 'pIC50', 5.66),
  ('CN(C)S(=O)(=O)Nc1ccc(F)c(Cc2c[nH]c3ncc(-c4cccnc4)cc23)c1F', 'pIC50', '≥ 5.00');
